Target: T1, IL-15Rα on CTLL-2 cells (murine (CTLL-2 murine cell line), UniProt Q60819 33-263)
T1 sequence (looked up): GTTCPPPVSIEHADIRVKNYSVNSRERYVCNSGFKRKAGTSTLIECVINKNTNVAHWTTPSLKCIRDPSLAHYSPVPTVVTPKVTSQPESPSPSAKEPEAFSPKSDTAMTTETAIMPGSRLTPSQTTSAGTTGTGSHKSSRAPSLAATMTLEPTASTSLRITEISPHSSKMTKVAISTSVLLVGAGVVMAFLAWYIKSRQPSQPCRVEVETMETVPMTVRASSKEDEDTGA
Assay: cell-based or functional assay
No end group written: not given here.
READOUT KIND: IC50 (µM), IL-15-induced (300 pg/mL) proliferation of the CTLL-2 cell line, MTT

Param item = `KVTAMTCYLL-NH2` ; retrieve measured IC50 (µM), IL-15-induced (300 pg/mL) proliferation of the CTLL-2 cell line, MTT.
57.7 µM

Param item = KVTAMTCFLL-NH2 [peptide SEQ ID No. 12 (Lys-Thr mutant, monomer)] ; retrieve measured IC50 (µM), IL-15-induced (300 pg/mL) proliferation of the CTLL-2 cell line, MTT.
24.6 µM

Param item = `KVTAMKCFLA-NH2` ; retrieve measured IC50 (µM), IL-15-induced (300 pg/mL) proliferation of the CTLL-2 cell line, MTT.
260 µM

Param item = `KVTAMKCFAL-NH2` ; retrieve measured IC50 (µM), IL-15-induced (300 pg/mL) proliferation of the CTLL-2 cell line, MTT.
200 µM
